Target: human β3 adrenergic receptor (Homo sapiens, UniProt P13945)
Construct: Full length β3 AR clones (402 amino acids) containing the last 6 amino acids of hβ3-AR are prepared; expressed in transfected cells; host or cells: CHO (Chinese hamster ovary) cells
Sequence (P13945 whole entry): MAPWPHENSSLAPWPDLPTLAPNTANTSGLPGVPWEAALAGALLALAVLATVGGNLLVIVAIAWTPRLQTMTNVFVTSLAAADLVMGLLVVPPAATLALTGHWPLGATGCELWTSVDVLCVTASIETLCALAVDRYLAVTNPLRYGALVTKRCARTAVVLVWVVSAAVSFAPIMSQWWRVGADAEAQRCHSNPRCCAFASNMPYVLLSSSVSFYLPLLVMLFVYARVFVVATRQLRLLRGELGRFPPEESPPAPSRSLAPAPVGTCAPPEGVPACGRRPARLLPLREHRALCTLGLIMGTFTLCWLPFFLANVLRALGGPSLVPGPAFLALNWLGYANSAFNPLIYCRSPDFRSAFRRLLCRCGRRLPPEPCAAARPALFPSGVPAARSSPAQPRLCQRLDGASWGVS
Assay: cAMP (SPA) response in CHO cells transfected with human β3 adrenergic receptor
Format: cell-based
Parameters: key: fraction of maximal isoproterenol (10^-5 M) response
Details: maximal response relative to maximal response of isoproterenol at 10^-5 M
# IA(β3) per entry
The reply should be a number, written without any unit.

[
  {
    "compound": "CS(=O)(=O)Nc1cc([C@@H](O)CNC2CCN(c3ccc(C(N)=O)cc3)CC2)ccc1O [Example 190]",
    "IA(β3)": 1.12
  },
  {
    "compound": "COc1ccc(Br)cc1S(=O)(=O)Nc1ccc(N2CCC(NC[C@H](O)COc3cccc4[nH]c(=O)[nH]c34)CC2)cc1 [Example 338]",
    "IA(β3)": 1
  },
  {
    "compound": "CS(=O)(=O)Nc1cc([C@@H](O)CNC2CCN(c3ccc(NS(=O)(=O)CC(=O)O)cc3)CC2)ccc1O [Example 323]",
    "IA(β3)": 0.92
  }
]

Prompt: Recall the recorded IA(β3) for CC(=O)Nc1ccc(N2CC(NC[C@H](O)COc3cccc4[nH]c5ccccc5c34)C2)cc1 [Example 415] with human β3 adrenergic receptor (Homo sapiens, UniProt P13945) and state it.
Response: 0.35

Prompt: Test system human β3 adrenergic receptor (Homo sapiens, UniProt P13945); read-out IA(β3); what value for CS(=O)(=O)Nc1cc([C@@H](O)CNC2CCN(c3ccc(NC(=O)CC(=O)O)cc3)CC2)ccc1O [Example 372] ?
Response: 1

Prompt: Hi! What's the reported IA(β3) for COc1ccc(S(=O)(=O)Nc2ccc(N3CC(NC[C@H](O)COc4cccc5[nH]c6ccccc6c45)C3)cc2)cc1OC [Example 416] on human β3 adrenergic receptor (Homo sapiens, UniProt P13945)?
Response: 0.48

Prompt: Find IA(β3) (human β3 adrenergic receptor (Homo sapiens, UniProt P13945)) for the entry CC(=O)Nc1ccc(S(=O)(=O)Nc2ccc(N3CCC(NC[C@H](O)c4ccc(O)c(O)c4)CC3)cc2)cc1 [Example 263]
Response: 0.93

Prompt: Test system human β3 adrenergic receptor (Homo sapiens, UniProt P13945); read-out IA(β3); what value for COC(=O)COc1ccc(S(=O)(=O)Nc2ccc(N3CCC(NC[C@H](O)c4ccc(O)c(NS(C)(=O)=O)c4)CC3)cc2)cc1 [Example 313] ?
Response: 1

Prompt: Give recorded IA(β3) with human β3 adrenergic receptor (Homo sapiens, UniProt P13945) for the following compound: O=C(Nc1ccc(N2CCC(NC[C@H](O)COc3cccc4[nH]c(=O)[nH]c34)CC2)cc1)c1ccc2c(c1)OCO2 [Example 390]
Response: 0.82

Prompt: Enter reported IA(β3) observed with human β3 adrenergic receptor (Homo sapiens, UniProt P13945) for CC(=O)Nc1ccc(S(=O)(=O)Nc2ccc(N3CC(NC[C@H](O)COc4ccc(O)cc4)C3)cc2)cc1 [Example 413]
Response: 0.73

Prompt: Recall the recorded IA(β3) for CCOC(=O)c1ccc(N2CCC(NC[C@H](O)c3ccc(O)c(NS(C)(=O)=O)c3)CC2)cc1 [Example 180] with human β3 adrenergic receptor (Homo sapiens, UniProt P13945) and state it.
Response: 1

Prompt: Hi! What's the reported IA(β3) for CCCCS(=O)(=O)Nc1ccc(N2CCC(NC[C@H](O)COc3ccc(O)c(NS(C)(=O)=O)c3)CC2)cc1 [Example 309] on human β3 adrenergic receptor (Homo sapiens, UniProt P13945)?
Response: 1

Prompt: What IA(β3) appears in the records for this compound with human β3 adrenergic receptor (Homo sapiens, UniProt P13945)? CCCCS(=O)(=O)N(CC(=O)OCc1ccccc1)c1ccc(N2CCC(NC[C@H](O)c3ccc(O)c(NS(C)(=O)=O)c3)CC2)cc1 [Example 342]
Response: 1

Prompt: What IA(β3) appears in the records for this compound with human β3 adrenergic receptor (Homo sapiens, UniProt P13945)? CCCCN(c1ccc(N2CCC(NC[C@H](O)c3ccc(O)c(NS(C)(=O)=O)c3)CC2)cc1)S(=O)(=O)CC(=O)OCc1ccccc1 [Example 324]
Response: 0.9
